Catalogue of IC50 at 72 h readings, one per entry.
- protocol_notes: Cytotoxicity assay (CellTiter-Glo cell viability, 72 hours)
- Type: cell-based
- test_context: African green monkey
*1 amine or outer side, *2 acyl side, *3 side chain or, on linkers, in order; H or OH if unused. Where a SMILES comes first, the peptide text is derived from it. Bridges are numbered along the chain shown (N, C = ends). [ ]: non-standard residue; d: D form. The star is where a group is joined. NH(1,3-benzodioxol-5-yl) = c1cc2c(cc1N*)OCO2; Phe(3,5-F2) = N[C@@H](Cc1cc(F)cc(F)c1)C(=O)O; Morpholine(3S-CO) = O=C(O)[C@@H]1COCCN1; Pro(4R-Me) = C[C@H]1CN[C@H](C(=O)O)C1; Hyp = O=C(O)[C@@H]1C[C@@H](O)CN1; aThr = C[C@H](O)[C@H](N)C(=O)O; CO = O=C([*:1])[*:2]

| molecule | IC50 at 72 h |
| --- | --- |
| C[C@@H]1C[C@H]2C(=O)O[C@@H](C)[C@H](NC(=O)[C@H](Cc3cc(F)cc(F)c3)NC(=O)Nc3ccc4c(c3)OCO4)C(=O)N3C[C@H](O)C[C@H]3C(=O)N3CCOC[C@H]3C(=O)N[C@@H](C)C(=O)N2C1 [Compound 319] ({NH(1,3-benzodioxol-5-yl)-CO}-[Phe(3,5-F2)][aThr][Hyp][Morpholine(3S-CO)]A[Pro(4R-Me)]; ester 2-C) | > 100 µM |

Switching to the query record.
The recorded IC50 at 72 h for entry "C[C@@H]1C[C@H]2C(=O)OC[C@H](NC(=O)[C@H](Cc3ccccc3)NC(=O)Nc3ccc4c(c3)OCO4)C(=O)N3CCC[C@H]3C(=O)N3CCCC[C@H]3C(=O)N[C@@H](C)C(=O)N2C1" equals > 100 µM
